# Procedure text: Plasma and total brain concentrations at 1 h post single oral administration to male Wistar Han rats
# Type: in vivo
# Condition label: rat, brain, 10 mg/kg oral gavage, read-out: Mean [brain]
concentration at 1 h: recorded values

Compound | concentration at 1 h [ng/mL]
C=CC(=O)N1CCC[C@@H](c2c(F)cc(C(N)=O)c3[nH]c4c(c23)CC2(CC4)CC2)C1 | 108
C=CC(=O)N1CCCC(c2c(F)cc(C(N)=O)c3[nH]c4c(c23)CCCCC4)C1 (single isomer, unassigned) | 84
C=CC(=O)N1CCC[C@@H](c2c(F)cc(C(N)=O)c3[nH]c4c(c23)CCC4)C1 | 116

---

# Subject of test: BTK (Homo sapiens)
# Construct: purchased Cama
# Sequence (Q06187 whole entry): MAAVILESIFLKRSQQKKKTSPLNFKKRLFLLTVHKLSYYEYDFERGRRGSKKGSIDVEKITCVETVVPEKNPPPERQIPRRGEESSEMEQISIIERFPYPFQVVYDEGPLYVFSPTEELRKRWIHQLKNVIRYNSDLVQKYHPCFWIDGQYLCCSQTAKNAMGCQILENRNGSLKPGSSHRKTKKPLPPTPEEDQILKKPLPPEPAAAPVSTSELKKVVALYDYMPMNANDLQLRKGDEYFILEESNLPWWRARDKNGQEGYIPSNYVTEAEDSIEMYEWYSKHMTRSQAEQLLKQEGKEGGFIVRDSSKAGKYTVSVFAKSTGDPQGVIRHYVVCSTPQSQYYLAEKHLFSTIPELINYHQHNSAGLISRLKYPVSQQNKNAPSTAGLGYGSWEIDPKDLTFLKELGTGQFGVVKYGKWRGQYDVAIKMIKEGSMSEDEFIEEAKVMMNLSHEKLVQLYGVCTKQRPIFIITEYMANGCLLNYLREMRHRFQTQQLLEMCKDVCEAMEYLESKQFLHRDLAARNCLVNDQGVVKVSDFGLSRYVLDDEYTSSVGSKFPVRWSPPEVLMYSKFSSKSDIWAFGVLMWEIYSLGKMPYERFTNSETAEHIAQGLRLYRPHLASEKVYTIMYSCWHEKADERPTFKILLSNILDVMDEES
# Procedure text: Assay to determine activity against BTK
# Format: biochemical
# Condition label: 1 mM ATP, 2 nM BTK, 90 minutes at room temperature
pIC50: −log10 of the molar value.
Each record here notes measured pIC50.

Compound | pIC50
C=CC(=O)N1CCc2c(cccc2-c2c(F)cc(C(N)=O)c3[nH]c4c(c23)CC2(CC4)CC2)C1 | > 8.00
C=CC(=O)N1CCC[C@@H](c2c(F)cc(C(N)=O)c3[nH]c4c(c23)CCC4)C1 | > 8.00
C=CC(=O)N[C@H]1CCCN(c2ncc(C(N)=O)c3[nH]c4c(c23)CCCC4)C1 | ≤ 7.00
C=CC(=O)N1CCC=C(c2ccc(C(N)=O)c3[nH]c4c(c23)CC2(CCC2)CC4)C1 | ≤ 7.00
C=CC(=O)N1CCCC(c2c(F)cc(C(N)=O)c3[nH]c4c(c23)CCCCC4)C1 (single isomer, unassigned) [Compound 5-6] | > 8.00
C=CC(=O)N1CCC[C@@H](c2cnc(C(N)=O)c3[nH]c4c(c23)CCCC4)C1 | > 8.00
C=CC(=O)N1CCCC(c2c(F)cc(C(N)=O)c3[nH]c4c(c23)CCCCC4)C1 (single isomer, unassigned) [Compound 5-7] | ≤ 7.00

---

Listing: log10 of concentration at 1 h of selected compounds
# Procedure text: Plasma and total brain concentrations at 1 h post single oral administration to female C57BL/6 mice
# Assay type: in vivo
# Condition label: mouse, plasma, 10 mg/kg oral gavage, read-out: Mean [plasma]
Assay readout: log10 of concentration at 1 h (log10 of the value in ng/mL)

Compound | log10 of concentration at 1 h
C=CC(=O)N1CCC(CNc2ncnc(N)c2-c2ccc(Oc3ccccc3)cc2)CC1 [Evobrutinib, reference compound] | 2.25
C=CC(=O)N1CCC[C@@H](c2c(F)cc(C(N)=O)c3[nH]c4c(c23)CC2(CC4)CC2)C1 [Compound 6-2] | 1.89
C=CC(=O)N1CCc2c(cccc2-c2ccc(C(N)=O)c3[nH]c4c(c23)CC2(CC4)CC2)C1 [Compound 7-2] | 2.04
C=CC(=O)N1CCC=C(c2c(F)cc(C(N)=O)c3[nH]c4c(c23)CCCCC4)C1 [Compound 5-4] | 1.26
C=CC(=O)N1CCCC(c2c(F)cc(C(N)=O)c3[nH]c4c(c23)CCCCC4)C1 (single isomer, unassigned) [Compound 5-6] | 1.62
C=CC(=O)N1CCC[C@@H](c2cnc(C(N)=O)c3[nH]c4c(c23)CCCC4)C1 [Compound 2-4] | 2.21
C=CC(=O)N1CCC[C@@H](n2nc(-c3ccc(Oc4ccccc4)cc3)c3c(N)ncnc32)C1 [Ibrutinib, reference compound] | 2.49
CC#CC(=O)N[C@H]1CCCN(c2c(F)cc(C(N)=O)c3[nH]c(C)c(C)c23)C1 [Branebrutinib, reference compound] | 3.83
CC#CC(=O)N1CCC[C@H]1c1nc(-c2ccc(C(=O)Nc3ccccn3)cc2)c2c(N)nccn12 [Acalabrutinib, reference compound] | 2.08
C=CC(=O)N1CCC[C@@H](c2c(F)cc(C(N)=O)c3[nH]c4c(c23)CCC4)C1 [Compound 10-2] | 2.28

Cited source for all entries: patent US20220009920A1
